Provenance of the data: the supplement of paper PMC8728848

Some binders, each annotated with its measured glycan array binding signal (z-score).
Target: Neu5Ac(a2-6)Gal(b1-4)GlcNAc(b1-3)Gal(b1-4)GlcNAc(b1-3)Gal(b1-4)GlcNAc(b1-2)Man(a1-3)[Neu5Ac(a2-6)Gal(b1-4)GlcNAc(b1-3)Gal(b1-4)GlcNAc(b1-3)Gal(b1-4)GlcNAc(b1-2)Man(a1-6)]GalNAc
Assay: glycan array binding signal (z-score within array); higher = stronger binding
Details: glycan notation: IUPAC condensed, linker removed
This is one part of a sample in which the strongest signals are shown more often than they occur.
QUANTITY_NAME: glycan array binding signal (z-score)

AT3G44510(29) (Arabidopsis thaliana), F4J341 (protein) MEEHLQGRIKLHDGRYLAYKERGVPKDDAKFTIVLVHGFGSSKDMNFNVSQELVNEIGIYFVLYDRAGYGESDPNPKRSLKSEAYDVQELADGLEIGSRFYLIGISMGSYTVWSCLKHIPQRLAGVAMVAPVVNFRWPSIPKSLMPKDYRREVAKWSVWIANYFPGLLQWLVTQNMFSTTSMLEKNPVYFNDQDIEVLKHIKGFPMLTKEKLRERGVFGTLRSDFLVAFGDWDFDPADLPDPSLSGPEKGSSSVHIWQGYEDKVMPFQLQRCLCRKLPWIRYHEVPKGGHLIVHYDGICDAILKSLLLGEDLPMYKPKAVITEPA    2.59
MPA (Maclura pomifera), P18674 (protein) GVTFDDGAYTGIREINFEYNSETAIGGLRVTYDLNGMPFVAEDHKSFITGFKPVKISLEFPSEYIVEVSGYVGKVEGYTVIRSLTFKTNKQTYGPYGVTNGTPFSLPIENGLIVGFKGSIGYWLDYFSIYLSL    6.71
EULS2 M2 (Oryza sativa) (protein) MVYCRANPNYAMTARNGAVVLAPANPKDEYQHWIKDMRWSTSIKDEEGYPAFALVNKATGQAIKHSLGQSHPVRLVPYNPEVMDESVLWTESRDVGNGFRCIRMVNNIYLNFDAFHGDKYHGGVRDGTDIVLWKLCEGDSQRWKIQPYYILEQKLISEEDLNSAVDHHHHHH    0.058
CLECb-Precomplexed (Mus musculus), P43025 (protein) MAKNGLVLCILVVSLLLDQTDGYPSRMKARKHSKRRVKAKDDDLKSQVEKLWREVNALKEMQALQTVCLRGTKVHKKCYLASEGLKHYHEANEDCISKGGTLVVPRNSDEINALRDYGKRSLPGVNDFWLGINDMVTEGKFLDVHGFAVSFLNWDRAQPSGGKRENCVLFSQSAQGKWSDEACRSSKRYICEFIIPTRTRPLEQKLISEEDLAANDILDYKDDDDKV    3.49
Clec49 (Caenorhabditis elegans) (protein) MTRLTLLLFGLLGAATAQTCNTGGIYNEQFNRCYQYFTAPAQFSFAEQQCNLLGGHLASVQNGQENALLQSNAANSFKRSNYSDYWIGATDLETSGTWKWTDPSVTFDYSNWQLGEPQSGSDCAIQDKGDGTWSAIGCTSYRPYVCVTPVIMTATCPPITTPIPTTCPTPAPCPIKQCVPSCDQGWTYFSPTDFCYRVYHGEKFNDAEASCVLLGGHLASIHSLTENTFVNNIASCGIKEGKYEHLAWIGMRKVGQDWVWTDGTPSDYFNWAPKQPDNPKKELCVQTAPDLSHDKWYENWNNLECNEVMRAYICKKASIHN    0.32
